Property: GI50; scope: individual compounds
System: MDA-MB-435
Assay: NCI tumour cell line growth inhibition, 48 h
Calls of active or inactive are those of the source. No stated cut-off is given here; in the data, active = GI50 up to about 1.1 µM and inactive = higher.
measurement_type: GI50

1. Cc1cc(C)c(S(=O)(=O)N(CCCCCN)OCCCN)c(C)c1: 18.2 µM (inactive)
2. CC1CCC(=O)C(C(=O)CC2CC(=O)N(C)C(=O)C2)C1 (stereo not given): > 100 µM (inactive)
3. CCOC(=O)CCC(NC(=O)c1ccc(CNc2nc3ccccc3nc2C(=O)OCC)cc1)C(=O)OCC (stereo not given): 3.01 µM (inactive)
4. Cc1ccc([N+](=O)[O-])cc1S(=O)(=O)Nc1ccc(C2=NNC(c3ccccc3O)C2)cc1 (stereo not given): 22.1 µM (inactive)
5. CNc1ccc(-c2nc3cc(C)ccc3o2)cc1: > 100 µM (inactive)
